test system: HBEGF locus; format: cell-based, human; conditions: high-throughput screen of dXR repression of the HBEGF gene; change in abundance of each domain in the library before and after diphtheria toxin selection
outcome-measure: Log2 (fold change)
Give only the figure.

Task: Recorded Log2 (fold change) of DOMAIN_7183 (protein, Microcaecilia unicolor) VQVPVTFEDVAVYFSEDEWGMLAGWQKELYKETMKENYETLTLLGCLSEKPSLISKIEREEDPCVRDQQDPRDRRKLRSSW , please.
Result: 2.4918

Task: Here is the next molecule: DOMAIN_6356 (protein, listed as Terrapene carolina) MSVTFEDVAMYFSPAEWVLLGEEQKQLYRHVMWENYQTLVSLGIQISKPVVISSIERGEELWAQSPTEDEDEDILSGTSPG
Result: 2.9197

Task: Here is the next molecule: DOMAIN_10277 (protein, listed as Dipodomys ordii) SNKLVSFDDVAVEFSWEEWQELDISQRTLYRDVMLETYSMLVSLGHTGPKPQLIVKLEQDEESYMREASDKNFSDVQKMKH
Result: 2.8257

Task: Here is the next molecule: DOMAIN_737 (protein, listed as Pan paniscus) MAFEDVAVYFSQEEWGLLDTAQRALYRRVMLDNFALVASLGLSTSRPRVVIQLERGEEPWVPSGTDTTLSRTTYRRRNPGS
Result: 4.544

Task: Here is the next molecule: DOMAIN_6807 (protein, listed as Xenopus laevis) LVKFEEVAVVFSEDEWNLLSDQQRGLYMEVMKENYEHLIYLGYEVPVILSLLQDGGGISSDAGSQSKSQQVAVAEGSNVNS
Result: 3.1615

Task: Here is the next molecule: DOMAIN_3328 (protein, listed as Hylobates sp.) MGLVSFKDVAVDFTQEEWQQLDPSQRTLYRDVMLENYSHLVSMGYPVSKPDVISKLEQGEEPWIIKGDISNWIYPDEYQAD
Result: 2.3718

Task: Here is the next molecule: DOMAIN_2563 (protein, listed as Pongo sp.) MGPQGARRQAFLAFGDVTVDFTQKEWRLLSPTQRALYREVTLENYSHLVSLGILHSKPELIRRLEQGEAPWGEERRRRPGP
Result: 2.8105

Task: Here is the next molecule: DOMAIN_749 (protein, listed as Pan paniscus) MGPQGARRQAFLAFGDVTVDFTQKEWRLLSPAQRALYREVTLENYSHLVSLGILHSKPELIRRLEQGEAPWGEERRRRPGP
Result: 3.1162

Task: Here is the next molecule: DOMAIN_92 (protein, listed as Pan paniscus) FGNLLGVPWAQGNSALPEGLLSFKDISMEFTWDEWQLLDSTQKYLYRDVILENYHNLISVGYHGTKPDLIFKLEQGEDPWI
Result: 2.1475

Data provenance: patent US12551573B2
